Catalogue of kcat/KM Cath-L readings, one per entry.
# ASSAY_TARGET: cathepsin L (Homo sapiens)
# Construct: made in house
# Sequence (P07711 114-333): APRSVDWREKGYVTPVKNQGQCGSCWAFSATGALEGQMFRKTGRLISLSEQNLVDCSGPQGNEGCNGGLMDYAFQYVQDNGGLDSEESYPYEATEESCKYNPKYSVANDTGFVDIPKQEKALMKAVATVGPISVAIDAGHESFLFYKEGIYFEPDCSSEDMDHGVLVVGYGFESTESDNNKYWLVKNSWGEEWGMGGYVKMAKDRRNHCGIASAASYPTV
# RUN_DESCRIPTION: Kinetic parameters of ACC substrates with cathepsin L
# Type: biochemical
# PROTOCOL_CONDITIONS: Fig. 5B; pH 5.5, 37 °C; cathepsin L 0.1–0.5 nM; triplicate, SD below 15%
Non-standard residues stand in square brackets, D forms with d. *: point of attachment. Phe(F5) = N[C@@H](Cc1c(F)c(F)c(F)c(F)c1F)C(=O)O; ACC = NC(=O)Cc1cc(=O)oc2cc(N*)ccc12

Input line: Tell us which kcat/KM Cath-L value is on record for Ac-H[dT][Phe(F5)]R-{ACC} (SMILES CC(=O)N[C@@H](Cc1c[nH]cn1)C(=O)N[C@@H](C(=O)N[C@@H](Cc1c(F)c(F)c(F)c(F)c1F)C(=O)N[C@@H](CCCNC(=N)N)C(=O)Nc1ccc2c(CC(N)=O)cc(=O)oc2c1)[C@H](C)O)
Output line: 729,200 M^-1s^-1
